- assaySystem: Pyruvate dehydrogenase kinase (Rattus norvegicus) (UniProt Q63065+A6IPZ9+Q64536+O54937)
- experimentNotes: Percent Stimulation of pyruvate oxidation in rat diaphragm was measured at 2 mM concentration of DCA (dichloroacetic acid)
- Assay type: functional, tissue-based
measuredAttribute: Stimulation (%)

1) O=C(O)C(=O)c1ccc(CO)cc1; 108

P. COc1ccc(C(=O)C(=O)O)cc1
Q. Cc1ccc(C(N)C(=O)O)cc1 (configuration not stated)
Prompt: Looking at recorded values for Stimulation, does P or Q come in lower? Bench note: the answer is the label of the chosen record.
Completion: Q

---

- assaySystem: Pyruvate dehydrogenase kinase (Rattus norvegicus) (UniProt Q63065+A6IPZ9+Q64536+O54937)
- experimentNotes: Percent Stimulation of pyruvate oxidation in rat diaphragm was measured at 2 mM concentration of DCA (dichloroacetic acid)
- Assay type: functional, tissue-based
measuredAttribute: Stimulation (%)

P. NC(=O)c1ccc(C(=O)C(=O)O)cc1
Q. CCSc1ccc(C(N)C(=O)O)cc1 (racemic)
Prompt: Looking at recorded values for Stimulation, does P or Q come in lower? Bench note: the answer is the label of the chosen record.
Completion: Q
(Q: 132%, P: 200%)

1. CN(C)c1ccc(C(=O)C(=O)O)cc1
2. Cc1cc(C(=O)C(=O)O)ccc1O
Prompt: Two entries are listed, 1 and 2 . Which one carries the higher Stimulation? Bench note: the answer is the label of the chosen record.
Completion: 1
(1: 156%, 2: 107%)

a. CC(C)Sc1ccc(C(=O)C(=O)O)cc1
b. O=C(O)C(=O)c1cc(I)c(O)c(I)c1
Prompt: Looking at recorded values for Stimulation, does a or b come in lower? Bench note: the answer is the label of the chosen record.
Completion: b
(b: 120%, a: 200%)

---

- assaySystem: Pyruvate dehydrogenase kinase (Rattus norvegicus) (UniProt Q63065+A6IPZ9+Q64536+O54937)
- experimentNotes: Tested for pyruvate oxidation in rat diaphragm, measured as % conversion of [14C]pyruvate to 14CO2 at 2 mM concentration
- Assay type: functional, tissue-based
measuredAttribute: Stimulation (%)

1) O=C(O)C(=O)c1ccc(CO)cc1; 23
2) O=C(O)C(=O)c1cc(I)c(O)c(I)c1; 85
3) C=CCc1cc(C(=O)C(=O)O)ccc1O; 29
4) COc1ccc(C(=O)C(=O)O)cc1; 132
5) CCCCSc1ccc(C(=O)C(=O)O)cc1; 113

1. CCS(=O)(=O)Nc1ccc(C(=O)C(=O)O)cc1
2. Cc1ccc(C(N)C(=O)O)cc1 (stereo not drawn)
3. CCSc1ccc(C(=O)C(=O)O)cc1
4. O=C(O)C(=O)c1ccccc1
Prompt: List these items ordered by Stimulation, big to small. # respond with the labels, arranged in the requested order
Completion: 3, 4, 2, 1
(3: 231%, 4: 85%, 2: 36%, 1: 22%)

I. Cc1ccc(C(=O)C(=O)O)cc1
II. CC(C)Sc1ccc(C(=O)C(=O)O)cc1
III. Cc1cc(C(=O)C(=O)O)ccc1O
Prompt: Rank ascending by Stimulation. # respond with the labels, arranged in the requested order
Completion: III, I, II
(III: 21%, I: 43%, II: 162%)

---

- assaySystem: Pyruvate dehydrogenase kinase (Rattus norvegicus) (UniProt Q63065+A6IPZ9+Q64536+O54937)
- experimentNotes: Pyruvate dehydrogenase activity in vivo was measured following subcutaneous administration of 1.2 mmol/kg
- Assay type: functional, organism-based
measuredAttribute: PDH active/PDH total (%)

1) CCCCSc1ccc(C(=O)C(=O)O)cc1; 14

a. O=C(O)C(=O)c1ccc(O)cc1
b. O=C(O)C(=O)c1ccccc1
Prompt: Looking at recorded values for PDH active/PDH total, does a or b come in lower? Bench note: the answer is the label of the chosen record.
Completion: a
(a: 12%, b: 38%)

P. COc1ccc(C(=O)C(=O)O)cc1
Q. N[C@H](C(=O)O)c1ccc(O)cc1 (stereo in doubt; D-26)
Prompt: Two entries are listed, P and Q . Which one carries the higher PDH active/PDH total? Bench note: the answer is the label of the chosen record.
Completion: P
